Origin of values: the supplement of paper PMC7366291

- System: Danio rerio Tg(wt1b:EGFP) embryo, pronephros
- method description: glomerular width (mean of left and right), fold change vs DMSO control; higher = wider glomerulus
- test context: 25 µM; exposure: 24-48 hpf
Attribute: glomerular width
measured attribute: glomerular width

>>> numeric_readout("CCC1(c2ccc(N)cc2)CCC(=O)NC1=O (centres undefined) [Glutethimide, para-amino]")
1.04
>>> numeric_readout("CN(C)C(=O)Oc1cccc([N+](C)(C)C)c1 [Neostigmine bromide]")
0.859
>>> numeric_readout("CCCC(C)C1(CC)C(=O)NC(=O)NC1=O (centres undefined) [Pentobarbital]")
0.987
>>> numeric_readout("C[N+](C)(C)CCCCCCCCCC[N+](C)(C)C [Decamethonium bromide]")
1.01

----------
- System: Danio rerio Tg(wt1b:EGFP) embryo, pronephros
- method description: pronephric angle neck segment to proximal convoluted tubule (mean of left and right), fold change vs DMSO control; higher = larger pronephric angle
- test context: 25 µM; exposure: 24-48 hpf
Where a name gives a salt, the structure may show the parent alone.
measured attribute: pronephric angle neck segment

>>> result("C[C@]12N[C@H](Cc3ccccc31)c1ccccc12 [Dizocilpine maleate]")
0.978
>>> result("O=[N+]([O-])O[C@@H]1CO[C@H]2[C@@H]1OC[C@@H]2O [Isosorbide mononitrate]")
0.986
>>> result("Fc1ccc(C(OCCN2CCN(CCCc3ccccc3)CC2)c2ccc(F)cc2)cc1")
1.02

----------
- Test system: Danio rerio Tg(wt1b:EGFP) embryo, pronephros
- method description: pronephric angle neck segment to proximal convoluted tubule (mean of left and right), fold change vs DMSO control; higher = larger pronephric angle
- test context: 25 µM; exposure: 24-48 hpf
Where a name gives a salt, the structure may show the parent alone.
Assign class by pronephric angle neck segment: not lower than 1 means class 1; lower than 1 means class 0.

>>> class_name("CCOC(=O)c1cncn1[C@H](C)c1ccccc1 [Etomidate]")
"class 1"
>>> class_name("CN1[C@@H]2CC[C@H]1C[C@@H](OC1c3ccccc3CCc3ccccc31)C2 [Deptropine citrate]")
"class 0"

----------
- Test system: Danio rerio Tg(wt1b:EGFP) embryo, pronephros
- method description: pronephric angle neck segment to proximal convoluted tubule (mean of left and right), fold change vs DMSO control; higher = larger pronephric angle
- test context: 25 µM; exposure: 24-48 hpf
Structures can show the parent of a compound that is named as a salt.
Listing: pronephric angle neck segment of selected compounds
measured attribute: pronephric angle neck segment

>>> result("CCC1(c2cccc(O)c2)CCCCN(C)C1 (centres undefined) [Meptazinol hydrochloride]")
0.984
>>> result("C#CCN(C)[C@H](C)Cc1ccccc1 [Selegiline hydrochloride]")
0.98
>>> result("OC(c1ccccc1)(c1ccccc1)C1CCNCC1 [Azacyclonol]")
0.994
>>> result("CN1CCC2(C)c3cc(O)ccc3N(C)C12 (single isomer, unassigned; (-)) [(-)-Eseroline fumarate salt]")
1.02
